biological target: Protein cereblon (Homo sapiens, UniProt Q96SW2)
Sequence (Q96SW2 whole entry): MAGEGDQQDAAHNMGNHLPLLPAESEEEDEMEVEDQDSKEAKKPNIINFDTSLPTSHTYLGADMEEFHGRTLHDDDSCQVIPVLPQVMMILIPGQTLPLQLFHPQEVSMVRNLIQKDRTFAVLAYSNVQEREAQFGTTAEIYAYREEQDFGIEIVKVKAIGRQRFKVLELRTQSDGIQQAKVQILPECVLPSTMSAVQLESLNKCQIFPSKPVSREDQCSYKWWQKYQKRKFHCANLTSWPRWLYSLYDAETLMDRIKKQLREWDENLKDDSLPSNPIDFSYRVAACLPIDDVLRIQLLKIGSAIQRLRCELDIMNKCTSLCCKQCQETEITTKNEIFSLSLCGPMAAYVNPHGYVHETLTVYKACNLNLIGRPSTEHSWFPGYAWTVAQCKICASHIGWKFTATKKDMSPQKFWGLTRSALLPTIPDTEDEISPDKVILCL
Experimental readout: pIC50
Field pIC50 (float): negative decimal logarithm of the concentration in molar.

Task: Write down the reported pIC50 of O=C1CCC(N2Cc3ccc(CNC(=O)Nc4ccc(Br)cc4)cc3C2=O)C(=O)N1 (stereo unspecified) , test system: Protein cereblon (Homo sapiens, UniProt Q96SW2).
Output: 6.21

The reported numbers originate from BindingDB's records for patent WO2021069705.
